From: patent US6987117B2

Target: cloned human 5-HT1A receptors (Homo sapiens)
Listed here: items and their measured pIC50.
When answering, recall that pIC50 equals minus log10 of the concentration in mol/L, and write that number alone.

Measured pIC50, Fc1ccc2c(C3=CCN(CC4COc5cccnc5O4)CC3)c[nH]c2c1 (stereo not shown) : 6.21

Please fill in: pIC50 reported for N#Cc1ccc2[nH]cc(C3=CCN(CC4COc5cccnc5O4)CC3)c2c1 (stereo not shown) = 6.74

# pIC50 of Fc1ccc2[nH]cc(C3=CCN(CC4COc5cccnc5O4)CC3)c2c1 (stereo not shown) = 7.24

// pIC50 value for C1=C(c2c[nH]c3ccccc23)CCN(C[C@H]2COc3cccnc3O2)C1 : 6.71

###

Structures can show the parent of a compound that is named as a salt.
measurement_label: melting point (°C)
Write the number in °C without appending the unit.

Below, each entry is followed by its recorded melting point result.
1. N#Cc1ccc2[nH]cc(C3=CCN(CC4COc5cccnc5O4)CC3)c2c1 (stereo not shown) (as salt: oxalate); 165
2. C1=C(c2c[nH]c3ccccc23)CCN(C[C@H]2COc3cccnc3O2)C1 (as salt: oxalate); 116
3. Fc1ccc2[nH]cc(C3=CCN(CC4COc5cccnc5O4)CC3)c2c1 (stereo not shown) (as salt: oxalate); 124

Let us examine a further case.
Entry Fc1ccc2c(C3=CCN(CC4COc5cccnc5O4)CC3)c[nH]c2c1 (stereo not shown) (as salt: oxalate) ; melting point = 120

###

Molecular target: human 5-HT1A receptors (Homo sapiens, UniProt P08908)
Construct: expressed in transfected cells; host or cells: CHO cells (stably transfected)
Sequence (P08908 whole entry): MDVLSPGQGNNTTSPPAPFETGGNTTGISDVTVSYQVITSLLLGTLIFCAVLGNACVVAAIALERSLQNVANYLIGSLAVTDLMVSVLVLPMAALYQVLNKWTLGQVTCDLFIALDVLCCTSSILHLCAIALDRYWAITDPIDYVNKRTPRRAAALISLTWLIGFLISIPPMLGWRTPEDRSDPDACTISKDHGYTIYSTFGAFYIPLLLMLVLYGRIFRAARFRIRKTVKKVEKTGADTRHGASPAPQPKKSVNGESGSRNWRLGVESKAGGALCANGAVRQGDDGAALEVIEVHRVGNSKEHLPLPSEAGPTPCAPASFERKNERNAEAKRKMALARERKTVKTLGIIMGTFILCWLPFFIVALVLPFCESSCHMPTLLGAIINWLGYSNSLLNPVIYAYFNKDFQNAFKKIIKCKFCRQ
Test: [3H] 8-OHDPAT displacement, 5-HT1A receptor affinity
Format: binding
Source text: High affinity for the serotonin 5-HT1A receptor was established by testing the claimed compound's ability to displace [^3H] 8-OHDPAT (dipropylaminotetralin) from the 5-HT1A serotonin receptor following a modification of the procedure of Hall et al., J. Neurochem. 44, 1685 (1985) which utilizes CHO cells stably transfected with human 5-HT1A receptors.
measurement_label: pKi
When answering, recall that pKi equals minus log10 of the concentration in mol/L, and write that number alone.

Use these answered entries as a reference point.
1. Fc1ccc2c(C3=CCN(CC4COc5cccnc5O4)CC3)c[nH]c2c1 (stereo not shown); 7.99
2. N#Cc1ccc2[nH]cc(C3=CCN(CC4COc5cccnc5O4)CC3)c2c1 (stereo not shown); 7.65
3. Fc1ccc2[nH]cc(C3=CCN(CC4COc5cccnc5O4)CC3)c2c1 (stereo not shown); 8.17

Kindly review the next molecule as well.
Record for C1=C(c2c[nH]c3ccccc23)CCN(C[C@H]2COc3cccnc3O2)C1 under target or system human 5-HT1A receptors (Homo sapiens, UniProt P08908): pKi reported as 7.84

###

Heads up, these molecules all have Ki values measured for serotonin transporter (Rattus norvegicus).
Provide only the numeric value, understood in nM.

1) Fc1ccc2[nH]cc(C3=CCN(CC4COc5cccnc5O4)CC3)c2c1 (stereo not shown); 2.39
2) Fc1ccc2c(C3=CCN(CC4COc5cccnc5O4)CC3)c[nH]c2c1 (stereo not shown); 1.21
3) C1=C(c2c[nH]c3ccccc23)CCN(C[C@H]2COc3cccnc3O2)C1; 9.5

Read the next record carefully.
N#Cc1ccc2[nH]cc(C3=CCN(CC4COc5cccnc5O4)CC3)c2c1 (stereo not shown) tested on serotonin transporter (Rattus norvegicus) gave Ki: 2.58
